For each of the binders below, state its OD490.
test_target: T1, Human CXCL10-His (human, UniProt P02778 22-98)
T1 construct: also called hCXCL10; recombinant human CXCL10 protein; not shown: His tag (named CXCL10-His)
T1 sequence (looked up): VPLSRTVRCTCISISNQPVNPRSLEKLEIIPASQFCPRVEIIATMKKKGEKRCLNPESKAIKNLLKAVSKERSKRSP
test_method_notes: phage ELISA
Numbers only.

scFv-phage clone 10D (scFv) scFv: QVQLVQSGGGVVQPGRSLRLSCAASGFTFSSYGMHWVRQAPGKGLEWVAVISYDGSNKYYADSVKGRFTISRDNSKNTLYLQMNSLRSEDTAVYYCARDKRAAFDIWGQGKMVTVSSGLGGLGGGGSGGGGSGGSSGVGSSYELTQAPSLSVSPGQTANIICSGDNLRTKYVSWYQQKPGQSPLLVIYQDTRRPSGIPARFSGSNSGNTATLTISGTQTERESTYYCMTWDVDTTSMIFGGGTKLTVL	2.85
scFv-phage clone 10E (scFv, also called E10 scFv) scFv: QVQLVQSGGGVVQPGRSLRLSCAASGFTFNSYGMHWVRQAPGKGPEWVAVISYDGNSKYYADSVKGRFTISRDNSKTTLYLQMNSLRSEDTAVYYCARDSGSYLDWYFDLWGRGTLVTVSSGLGGLGGGGSGGGGSGGSSGVGSQFVLTQPPSVSGAPGQRVTISCTGSRSNFGAGHDVHWYQQLPGTAPKLLIYGNNNRPSGVPDRFSGSKSGTSASLAITGLQAEDEADYYCQSYDSRLGVVFGGGTKLTVL	3.05
scFv-phage clone 9E (scFv) QVQLVESGGGVVQPGRSLRLSCAASGFTFSSYGMHWVRQAPGKGLEWVAVISYDGNNKYYVDSVKGRFTISRDNSKNTLYLQMNSLRSEDTAVYYCARDSGSYLDWYFDLWGRGTLVTVSSQPPSVSVAPGKTARIACGGGNIGDKSVHWYQQKPGQAPVLVIFYDSDRPSGIPKRLSGSNSGNTATLTISRVEAGDEGDYYCQVWDSSSDRPVFGGGTKLTVLG	2.96

Here's the next entry for you.
query: Supply recorded OD490 for scFv-phage clone 12D (scFv) QVQLVQSGGGVVQPGRSLRLSCVASAFTFSRYGMHWVRQAPGKGLEWVALISYDGSSEYYADSVKGRFNISRDNSKNTVYLQMNSLRAEDTAVYYCVKDGLAAKLGHWGQGTLVTVSSQAPSLSVSPGQTANIICSGDNLRTKYVSWYQQKPGQSPLLVIYQDTRRPSGIPARFSGSNSGNTATLTISGTQTERESTYYCMTWDVDTTSMIFGGGTKLTVLG here.
result: 3.02

Cited source for all entries: patent US20160108118A1
